Some molecules, each annotated with its measured TGI.
# Tested on: 786-0 renal
# protocol.details: NCI tumour cell line growth inhibition, 48 h
Where a SMILES comes first, the peptide text is derived from it. The star is where a group is joined. Cbz = O=C(OCc1ccccc1)*

Please review the following examples before continuing.
{"columns": ["molecule", "system.under.test", "TGI"],
 "data": [
  ["COc1ccc(P2(=S)OC(C)(C)C(C)(C)O2)cc1", "786-0 renal", "> 100 µM"],
  ["CN(CC(=O)O)c1ncc2c(n1)CCCC2", "786-0 renal", "> 100 µM"]
]}

Could you tell me which TGI is on file for O=C(O)CCC(NC(=O)OCc1ccccc1)C(=O)NC(Cc1cnc[nH]1)C(=O)O (stereo not drawn) (Cbz-Glu-His-OH; configuration not given here) ?
> 100 µM
